Cited source for all entries: patent US20100273203A1

Target: CYP3A7 (Homo sapiens, UniProt P24462)
Sequence (P24462 whole entry): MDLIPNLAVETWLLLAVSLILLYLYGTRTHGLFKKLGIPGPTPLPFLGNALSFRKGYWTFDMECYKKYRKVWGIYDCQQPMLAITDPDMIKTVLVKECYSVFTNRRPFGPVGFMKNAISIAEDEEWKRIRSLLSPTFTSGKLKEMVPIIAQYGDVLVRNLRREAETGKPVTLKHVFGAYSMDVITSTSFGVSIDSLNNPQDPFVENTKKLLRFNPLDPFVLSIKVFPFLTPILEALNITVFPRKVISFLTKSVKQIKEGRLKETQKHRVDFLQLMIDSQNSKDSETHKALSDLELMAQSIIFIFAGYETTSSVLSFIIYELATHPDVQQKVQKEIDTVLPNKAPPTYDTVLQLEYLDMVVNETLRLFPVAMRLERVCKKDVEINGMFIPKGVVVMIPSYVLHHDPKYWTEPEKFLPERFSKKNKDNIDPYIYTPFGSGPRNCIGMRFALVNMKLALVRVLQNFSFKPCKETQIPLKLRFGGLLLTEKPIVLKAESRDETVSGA
Assay: Steady-state metabolism of R- and S-warfarin by recombinant CYP3A7
Conditions: 10-hydroxywarfarin formation
So I've got a bunch of compounds here, and I need their Km values.
Numbers only, in µM.

CC(=O)C[C@H](c1ccccc1)c1c(O)c2ccccc2oc1=O [R-warfarin, (R) warfarin]
54

API: the following record is the query input.
Would you mind telling me what Km value was observed for CC(=O)C[C@@H](c1ccccc1)c1c(O)c2ccccc2oc1=O [S-warfarin, (S) warfarin, reference compound] ? 81

====

So I've got a bunch of molecules here, and I need their Ki values.
Target: CYP2C9*1 (Homo sapiens, UniProt P11712)
Conditions: S-warfarin metabolism; 7-hydroxywarfarin formation as marker; mixed inhibition
One number for each entry, in µM.

CC(=O)CC(c1ccc(O)cc1)c1c(O)c2ccccc2oc1=O (centres unmarked) [4′-OH-WAR, 4′-hydroxywarfarin]
133

Would you mind telling me what Ki value was observed for CC(=O)CC(c1ccccc1)c1c(O)c2cccc(O)c2oc1=O (centres unmarked) [8-OH-WAR, 8-hydroxywarfarin] ? 103

====

Molecular target: CYP3A4 (Homo sapiens, UniProt P08684)
Sequence (P08684 whole entry): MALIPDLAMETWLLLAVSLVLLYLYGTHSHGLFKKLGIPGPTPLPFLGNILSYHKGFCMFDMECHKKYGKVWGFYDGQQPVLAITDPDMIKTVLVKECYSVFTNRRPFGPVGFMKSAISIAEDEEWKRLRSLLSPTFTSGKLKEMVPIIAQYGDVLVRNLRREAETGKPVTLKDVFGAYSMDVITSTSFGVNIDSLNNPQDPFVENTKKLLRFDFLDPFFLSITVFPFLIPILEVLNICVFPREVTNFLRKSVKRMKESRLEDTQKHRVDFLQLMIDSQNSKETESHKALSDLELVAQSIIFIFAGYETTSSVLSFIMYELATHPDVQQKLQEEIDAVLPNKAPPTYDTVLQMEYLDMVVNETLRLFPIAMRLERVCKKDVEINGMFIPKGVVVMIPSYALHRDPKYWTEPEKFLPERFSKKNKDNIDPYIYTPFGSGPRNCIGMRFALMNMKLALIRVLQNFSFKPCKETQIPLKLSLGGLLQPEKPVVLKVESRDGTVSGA
Settings: read-out: IC50 for CYP marker reaction; P450-Glo marker reaction
So I've got a bunch of compounds here, and I need their pIC50 values.
Give bare numbers, as −log10 of the molar value.

CC(=O)CC(c1ccc(O)cc1)c1c(O)c2ccccc2oc1=O (stereo not shown) [4′-OH-WAR, 4′-hydroxywarfarin]
4.41

Would you mind telling me what pIC50 value was observed for CC(=O)CC(c1ccccc1)c1c(O)c2cccc(O)c2oc1=O (stereo not shown) [8-OH-WAR, 8-hydroxywarfarin] ? 3.62

====

So I've got a bunch of compounds here, and I need their pIC50 values.
Target: CYP2C9 (Homo sapiens, UniProt P11712)
Sequence (P11712 whole entry): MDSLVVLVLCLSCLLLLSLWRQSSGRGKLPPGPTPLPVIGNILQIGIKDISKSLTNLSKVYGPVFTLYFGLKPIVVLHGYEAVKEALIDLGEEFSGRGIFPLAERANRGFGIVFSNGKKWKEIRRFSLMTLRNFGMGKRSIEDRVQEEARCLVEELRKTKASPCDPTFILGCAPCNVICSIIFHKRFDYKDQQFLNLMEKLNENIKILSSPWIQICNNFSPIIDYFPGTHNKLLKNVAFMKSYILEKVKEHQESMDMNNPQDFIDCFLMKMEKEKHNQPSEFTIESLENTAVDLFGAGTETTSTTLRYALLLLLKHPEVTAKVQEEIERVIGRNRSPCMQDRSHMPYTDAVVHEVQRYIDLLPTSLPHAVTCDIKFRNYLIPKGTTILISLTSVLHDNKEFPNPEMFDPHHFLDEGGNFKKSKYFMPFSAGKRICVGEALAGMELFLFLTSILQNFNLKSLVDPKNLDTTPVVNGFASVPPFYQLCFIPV
Conditions: read-out: IC50 toward recombinant CYP2C9 activity; P450-Glo, 50 μM Luciferin H; racemic compounds
Method: Hydroxywarfarins were screened for inhibitory potential toward recombinant CYP2C9 using the Promega (Madison, Wis.) CY2C9 P450-Glo™ Assay using the manufacturer's protocol. These IC50 studies were analyzed on a PerkinElmer Victor^3V™ 1420 Multilabel Counter. Recombinant CYP2C9, 50 nM, was incubated with 50 μM Luciferin H, and six concentrations of each hydroxywarfarin from approximately 10 nM to 4 mM final concentration, as optimized for each compound. […]
One number for each entry, as −log10 of the molar value.

CC(=O)CC(c1ccccc1)c1c(O)c2cccc(O)c2oc1=O (centres unmarked) [8-OH-WAR, 8-hydroxywarfarin]
4.80
CC(=O)CC(c1ccccc1)c1c(O)c2ccc(O)cc2oc1=O (centres unmarked) [7-OH-WAR, 7-hydroxywarfarin]
4.46
CC(=O)CC(c1ccc(O)cc1)c1c(O)c2ccccc2oc1=O (centres unmarked) [4′-OH-WAR, 4′-hydroxywarfarin]
5.03
CC(=O)CC(c1ccccc1)c1c(O)c2cc(O)ccc2oc1=O (centres unmarked) [6-OH-WAR, 6-hydroxywarfarin]
4.33

API: the following record is the query input.
Would you mind telling me what pIC50 value was observed for CC(=O)C(O)C(c1ccccc1)c1c(O)c2ccccc2oc1=O (centres unmarked) [10-OH-WAR, 10-hydroxywarfarin] ? 5.80

====

Target: UGT1A9 (Homo sapiens)
Sequence (O60656 26-530): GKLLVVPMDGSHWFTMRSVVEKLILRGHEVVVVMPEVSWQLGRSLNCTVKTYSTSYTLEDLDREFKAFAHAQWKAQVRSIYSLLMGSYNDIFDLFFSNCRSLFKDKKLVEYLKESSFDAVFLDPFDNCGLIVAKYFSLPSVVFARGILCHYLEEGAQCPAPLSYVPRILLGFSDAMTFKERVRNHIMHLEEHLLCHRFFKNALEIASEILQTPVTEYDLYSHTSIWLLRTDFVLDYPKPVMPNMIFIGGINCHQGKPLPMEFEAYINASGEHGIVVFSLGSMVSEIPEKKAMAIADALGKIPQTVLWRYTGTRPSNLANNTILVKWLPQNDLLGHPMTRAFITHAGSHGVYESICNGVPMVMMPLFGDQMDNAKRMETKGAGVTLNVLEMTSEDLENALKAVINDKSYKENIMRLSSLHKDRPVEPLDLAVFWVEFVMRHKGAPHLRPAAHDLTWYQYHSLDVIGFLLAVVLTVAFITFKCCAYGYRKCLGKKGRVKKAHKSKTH
Settings: glucuronidation; racemic OHWars
reported-endpoint: Km (µM)
Answers are plain numbers, in µM.

Would you mind telling me what Km value was observed for CC(=O)CC(c1ccccc1)c1c(O)c2cccc(O)c2oc1=O (stereo not shown) [8-OH-WAR, 8-hydroxywarfarin] ? 107

====

So I've got a bunch of molecules here, and I need their % R values.
Assay: LC-MS/MS urinary metabolic profile of patients receiving warfarin
Details: patient F87; urine
Give bare numbers, in %.

CC(=O)CC(c1ccccc1)c1c(O)c2cc(O)ccc2oc1=O (stereo not shown) [6-OH-WAR, 6-hydroxywarfarin]
62

Go through the list and state % R for each entry.
1. CC(=O)CC(c1ccccc1)c1c(O)c2cccc(O)c2oc1=O (stereo not shown) [8-OH-WAR, 8-hydroxywarfarin]
2. CC(=O)CC(c1ccc(O)cc1)c1c(O)c2ccccc2oc1=O (stereo not shown) [4′-OH-WAR, 4′-hydroxywarfarin]
3. CC(=O)CC(c1ccccc1)c1c(O)c2ccc(O)cc2oc1=O (stereo not shown) [7-OH-WAR, 7-hydroxywarfarin]

1. 69
2. 30
3. 52

====

Molecular target: CYP2C9 present in the human liver microsomes (Homo sapiens, UniProt P11712)
Conditions: S-warfarin metabolism; 7-hydroxywarfarin formation as marker
reported-endpoint: Ki (µM)
One number for each entry, in µM.

CC(=O)C(O)C(c1ccccc1)c1c(O)c2ccccc2oc1=O (stereo not shown) [10-OH-WAR, 10-hydroxywarfarin]
2.2
CC(=O)CC(c1ccccc1)c1c(O)c2cc(O)ccc2oc1=O (stereo not shown) [6-OH-WAR, 6-hydroxywarfarin]
167
CC(=O)CC(c1ccccc1)c1c(O)c2cccc(O)c2oc1=O (stereo not shown) [8-OH-WAR, 8-hydroxywarfarin]
13

Would you mind telling me what Ki value was observed for CC(=O)CC(c1ccc(O)cc1)c1c(O)c2ccccc2oc1=O (stereo not shown) [4′-OH-WAR, 4′-hydroxywarfarin] ? 17

====

So I've got a bunch of compounds here, and I need their Km values.
Target: UniProt P08684
Assay: Steady-state metabolism of R- and S-warfarin by recombinant CYP3A4
Conditions: 10-hydroxywarfarin formation
One number for each entry, in µM.

CC(=O)C[C@@H](c1ccccc1)c1c(O)c2ccccc2oc1=O [S-warfarin, (S) warfarin, reference compound]
26

API: the following record is the query input.
Would you mind telling me what Km value was observed for CC(=O)C[C@H](c1ccccc1)c1c(O)c2ccccc2oc1=O [R-warfarin, (R) warfarin] ? 16

====

So I've got a bunch of molecules here, and I need their pIC50 values.
Molecular target: CYP2C9*1 (Homo sapiens, UniProt P11712)
Conditions: read-out: IC50 for CYP marker reaction; P450-Glo marker reaction
Numbers only, as −log10 of the molar value.

Before answering, review these 4 worked examples.
CC(=O)CC(c1ccc(O)cc1)c1c(O)c2ccccc2oc1=O (centres unmarked) [4′-OH-WAR, 4′-hydroxywarfarin]
5.08
CC(=O)CC(c1ccccc1)c1c(O)c2cc(O)ccc2oc1=O (centres unmarked) [6-OH-WAR, 6-hydroxywarfarin]
4.35
CC(=O)CC(c1ccccc1)c1c(O)c2cccc(O)c2oc1=O (centres unmarked) [8-OH-WAR, 8-hydroxywarfarin]
4.76
CC(=O)CC(c1ccccc1)c1c(O)c2ccc(O)cc2oc1=O (centres unmarked) [7-OH-WAR, 7-hydroxywarfarin]
4.34

API: the following record is the query input.
Would you mind telling me what pIC50 value was observed for CC(=O)C(O)C(c1ccccc1)c1c(O)c2ccccc2oc1=O (centres unmarked) [10-OH-WAR, 10-hydroxywarfarin] ? 5.70

====

Biological target: UniProt:P24462
Assay: Steady-state metabolism of R- and S-warfarin by recombinant CYP3A7
Settings: 4′-hydroxywarfarin formation
So I've got a bunch of molecules here, and I need their Km values.

CC(=O)C[C@@H](c1ccccc1)c1c(O)c2ccccc2oc1=O [S-warfarin, (S) warfarin, reference compound]
2280 µM

API: the following record is the query input.
So what Km did CC(=O)C[C@H](c1ccccc1)c1c(O)c2ccccc2oc1=O [R-warfarin, (R) warfarin] get with UniProt:P24462? 1390 µM

====

Assay: LC-MS/MS urinary metabolic profile of patients receiving warfarin
Details: patient F84; urine
reported-endpoint: % S (proportion in (S)-enantiomeric form) (%)
Give bare numbers, in %.

CC(=O)CC(c1ccccc1)c1c(O)c2cccc(O)c2oc1=O (stereo not shown) [8-OH-WAR, 8-hydroxywarfarin]
0
CC(=O)CC(c1ccccc1)c1c(O)c2ccc(O)cc2oc1=O (stereo not shown) [7-OH-WAR, 7-hydroxywarfarin]
20
CC(=O)CC(c1ccc(O)cc1)c1c(O)c2ccccc2oc1=O (stereo not shown) [4′-OH-WAR, 4′-hydroxywarfarin]
56

API: the following record is the query input.
Would you mind telling me what % S (proportion in (S)-enantiomeric form) value was observed for CC(=O)CC(c1ccccc1)c1c(O)c2cc(O)ccc2oc1=O (stereo not shown) [6-OH-WAR, 6-hydroxywarfarin] ? 35

====

Target: CYP3A4 (Homo sapiens)
Experiment: Steady-state metabolism of R- and S-warfarin by recombinant CYP3A4
Conditions: 4′-hydroxywarfarin formation
So I've got a bunch of compounds here, and I need their Km values.
One number for each entry, in µM.

CC(=O)C[C@@H](c1ccccc1)c1c(O)c2ccccc2oc1=O [S-warfarin, (S) warfarin, reference compound]
27

API: the following record is the query input.
Would you mind telling me what Km value was observed for CC(=O)C[C@H](c1ccccc1)c1c(O)c2ccccc2oc1=O [R-warfarin, (R) warfarin] ? 36

====

Target: CYP2C9*1 (Homo sapiens)
Conditions: S-warfarin metabolism; based on S-6-hydroxywarfarin formation
reported-endpoint: pKi
One number for each entry, as −log10 of the molar value.

Would you mind telling me what pKi value was observed for CC(=O)CC(c1ccccc1)c1c(O)c2ccc(O)cc2oc1=O (stereo not shown) [7-OH-WAR, 7-hydroxywarfarin] ? 5.00
